- Study System: Plasma kallikrein (Homo sapiens, UniProt P03952)
- Sequence (P03952 20-390 limits assumed): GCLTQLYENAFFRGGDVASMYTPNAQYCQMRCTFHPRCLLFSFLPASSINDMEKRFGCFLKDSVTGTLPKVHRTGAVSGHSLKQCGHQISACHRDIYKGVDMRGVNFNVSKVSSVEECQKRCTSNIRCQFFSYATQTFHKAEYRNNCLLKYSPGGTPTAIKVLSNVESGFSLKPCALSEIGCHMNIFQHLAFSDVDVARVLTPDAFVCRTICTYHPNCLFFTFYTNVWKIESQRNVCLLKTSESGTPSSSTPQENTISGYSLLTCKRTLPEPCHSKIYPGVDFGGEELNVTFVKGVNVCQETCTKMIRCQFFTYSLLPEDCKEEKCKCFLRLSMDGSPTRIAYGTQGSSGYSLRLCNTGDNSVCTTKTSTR
- Sequence (P03952 391-638 limits assumed): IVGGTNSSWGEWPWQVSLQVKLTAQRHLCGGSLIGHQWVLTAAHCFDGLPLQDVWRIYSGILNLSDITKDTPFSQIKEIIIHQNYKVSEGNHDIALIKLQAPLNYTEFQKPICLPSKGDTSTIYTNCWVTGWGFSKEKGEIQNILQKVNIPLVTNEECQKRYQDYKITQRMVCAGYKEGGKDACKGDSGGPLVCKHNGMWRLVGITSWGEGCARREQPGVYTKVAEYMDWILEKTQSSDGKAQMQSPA
- Experiment: Inhibition of Pka (unknown origin)
Measured Parameter: pIC50
When answering, recall that pIC50 equals minus log10 of the concentration in mol/L, and write that number alone.

get_value(item= CCC(c1ccc2cc(C(=O)O)ccc2c1)n1cc(OC)c(-c2cc(Cl)ccc2-n2cc(C(F)(F)F)nn2)cc1=O (stereo unspecified) , readout=pIC50) returns 6.59

* * *

Measured Parameter: IC50 (µM)
All answers are understood in µM, so give the number only.

IC50 of CCC(c1cn(-c2ccc(C(=O)O)cc2)nn1)n1cc(OC)c(-c2cc(Cl)ccc2-n2cc(Cl)nn2)cc1=O (configuration not stated) , assay on Coagulation factor X (Homo sapiens, UniProt P00742), is 17.4

IC50 of CC[C@@H](C(=O)Nc1ccc(C(N)=O)c(F)c1)n1cc(OC)c(-c2cc(Cl)ccc2-n2cc(C(F)(F)F)nn2)cc1=O , assay on Coagulation factor X (Homo sapiens, UniProt P00742), is 7.21

IC50 of CC[C@H](c1cn(-c2ccc(C(=O)OC)cc2)nn1)n1cc(OC)c(-c2cc(Cl)ccc2-n2cc(Cl)nn2)cc1=O , assay on Coagulation factor X (Homo sapiens, UniProt P00742), is 101

IC50 of COc1cn(C(Cc2ccccc2)c2cn(-c3ccc(C(=O)O)cc3)nn2)c(=O)cc1-c1cc(Cl)ccc1-n1cc(C(F)(F)F)nn1 (configuration not stated) , assay on Coagulation factor X (Homo sapiens, UniProt P00742), is 41.2

IC50 of COc1cn(C(Cc2ccccc2)c2cn(-c3ccc(C(=O)O)cc3)nn2)c(=O)cc1-c1cc(Cl)ccc1-n1cc(Cl)nn1 (configuration not stated) , assay on Coagulation factor X (Homo sapiens, UniProt P00742), is 48.2

* * *

- Study System: Plasma kallikrein (Homo sapiens, UniProt P03952)
- Experiment: Inhibition of human PKa using H-Pro-Phe-Arg-AMC as substrate incubated for 15 mins by fluorescence reader analysis
Measured Parameter: IC50
Reply with a number, then the unit it belongs to.

get_value(item= COc1cn(Cc2cn(-c3cnn(C)c3)nn2)c(=O)cc1-c1cc(Cl)ccc1-n1cc(Cl)nn1 , readout=IC50) returns 3740 nM

get_value(item= CC[C@@H](c1cn(-c2ccc(C(=O)OC)cc2)nn1)n1cc(OC)c(-c2cc(Cl)ccc2-n2cc(Cl)nn2)cc1=O , readout=IC50) returns 643 nM

get_value(item= COc1cn(C(Cc2ccccc2)c2cn(-c3cn[nH]c3)nn2)c(=O)cc1-c1cc(Cl)ccc1-n1cc(Cl)nn1 (centres undefined) , readout=IC50) returns 683 nM

get_value(item= CCC(c1cn(-c2cccc(C(=O)OC)c2)nn1)n1cc(OC)c(-c2cc(Cl)ccc2-n2cc(Cl)nn2)cc1=O (centres undefined) , readout=IC50) returns 2140 nM

* * *

- Study System: Plasma kallikrein (Homo sapiens)
- Experiment: Inhibition of human PKa using H-Pro-Phe-Arg-AMC as substrate incubated for 15 mins by fluorescence reader analysis
Class (required): determined from IC50; valid ranges are low class (below 700 nM), middle class (700 nM to below 8000 nM), high class (8000 nM or more)

Query string: Each molecule maps to one class by IC50. Which class for COc1cn(C(Cc2ccccc2)c2cn(-c3cn[nH]c3)nn2)c(=O)cc1-c1cc(Cl)ccc1-n1cc(C(F)(F)F)nn1 (centres undefined) ?
Result string: middle class

Query string: Each molecule maps to one class by IC50. Which class for CCC(c1cn(-c2cccc(C(=O)O)c2)nn1)n1cc(OC)c(-c2cc(Cl)ccc2-n2cc(Cl)nn2)cc1=O (centres undefined) ?
Result string: middle class

Query string: Each molecule maps to one class by IC50. Which class for COc1cn(C(Cc2ccccc2)c2cn(-c3ccccc3)nn2)c(=O)cc1-c1cc(Cl)ccc1-n1cc(C(F)(F)F)nn1 (centres undefined) ?
Result string: middle class

Query string: Each molecule maps to one class by IC50. Which class for CCC(c1cn(-c2ccc(C(=O)O)cc2)nn1)n1cc(OC)c(-c2cc(Cl)ccc2-n2cc(Cl)nn2)cc1=O (centres undefined) ?
Result string: low class

Query string: Each molecule maps to one class by IC50. Which class for COc1cn([C@H](Cc2ccccc2)c2cn(-c3ccc(C(=O)O)cc3)nn2)c(=O)cc1-c1cc(Cl)ccc1-n1cc(C(F)(F)F)nn1 ?
Result string: middle class

Query string: Each molecule maps to one class by IC50. Which class for COc1cn(C(Cc2ccccc2)c2cn(-c3ccc(C(=O)O)cc3)nn2)c(=O)cc1-c1cc(Cl)ccc1-n1cc(C(F)(F)F)nn1 (centres undefined) ?
Result string: low class

Query string: Each molecule maps to one class by IC50. Which class for COc1cn(Cc2cn(-c3cccc(C(=O)O)c3)nn2)c(=O)cc1-c1cc(Cl)ccc1-n1cc(Cl)nn1 ?
Result string: low class

Query string: Each molecule maps to one class by IC50. Which class for CCC(c1cn(-c2cn[nH]c2)nn1)n1cc(OC)c(-c2cc(Cl)ccc2-n2cc(Cl)nn2)cc1=O (centres undefined) ?
Result string: middle class

Query string: Each molecule maps to one class by IC50. Which class for COc1cn(Cc2cn(-c3ccccc3C(=O)O)nn2)c(=O)cc1-c1cc(Cl)ccc1-n1cc(Cl)nn1 ?
Result string: high class

Query string: Each molecule maps to one class by IC50. Which class for COc1cn(C(Cc2ccccc2)c2cn(-c3ccccc3)nn2)c(=O)cc1-c1cc(Cl)ccc1-n1cc(Cl)nn1 (centres undefined) ?
Result string: low class

Query string: Each molecule maps to one class by IC50. Which class for COc1ccc(-n2cc(Cn3cc(OC)c(-c4cc(Cl)ccc4-n4cc(Cl)nn4)cc3=O)nn2)c(C)n1 ?
Result string: high class

Query string: Each molecule maps to one class by IC50. Which class for COc1cn(Cc2cn(-c3cc(Br)cnc3C#N)nn2)c(=O)cc1-c1cc(Cl)ccc1-n1cc(Cl)nn1 ?
Result string: high class

Query string: Each molecule maps to one class by IC50. Which class for COc1cn(Cc2cn(-c3cccnc3C)nn2)c(=O)cc1-c1cc(Cl)ccc1-n1cc(Cl)nn1 ?
Result string: high class

* * *

Kindly supply the reported EC1.5 values for the records listed here.
- System: Plasma
- Experiment: Anticoagulant activity in citrated human pooled plasma assessed as prolongation of activated partial thromboplastin time incubated for 5 mins by aPTT reagent based semi-automated coagulometric analysis
- Format: functional
All answers are understood in µM, so give the number only.

get_value(item= CC[C@H](c1cn(-c2ccc(C(=O)OC)cc2)nn1)n1cc(OC)c(-c2cc(Cl)ccc2-n2cc(Cl)nn2)cc1=O , readout=EC1.5) returns 392

get_value(item= CCC(c1cn(-c2ccc(C(=O)O)cc2)nn1)n1cc(OC)c(-c2cc(Cl)ccc2-n2cc(Cl)nn2)cc1=O (configuration not stated) , readout=EC1.5) returns 25.4

get_value(item= CC[C@@H](C(=O)Nc1ccc(C(N)=O)c(F)c1)n1cc(OC)c(-c2cc(Cl)ccc2-n2cc(C(F)(F)F)nn2)cc1=O , readout=EC1.5) returns 0.71

get_value(item= COc1cn([C@H](Cc2ccccc2)c2cn(-c3ccc(C(=O)O)cc3)nn2)c(=O)cc1-c1cc(Cl)ccc1-n1cc(Cl)nn1 , readout=EC1.5) returns 29

get_value(item= COc1cn([C@H](Cc2ccccc2)c2cn(-c3ccc(C(=O)O)cc3)nn2)c(=O)cc1-c1cc(Cl)ccc1-n1cc(C(F)(F)F)nn1 , readout=EC1.5) returns 26.9

get_value(item= COc1cn(C(Cc2ccccc2)c2cn(-c3cn[nH]c3)nn2)c(=O)cc1-c1cc(Cl)ccc1-n1cc(C(F)(F)F)nn1 (configuration not stated) , readout=EC1.5) returns 1.57

get_value(item= COc1cn([C@@H](Cc2ccccc2)c2cn(-c3ccc(C(=O)O)cc3)nn2)c(=O)cc1-c1cc(Cl)ccc1-n1cc(Cl)nn1 , readout=EC1.5) returns 0.75

* * *

- Study System: Coagulation factor XI (Homo sapiens)
- Sequence (P03951 19-387 limits assumed): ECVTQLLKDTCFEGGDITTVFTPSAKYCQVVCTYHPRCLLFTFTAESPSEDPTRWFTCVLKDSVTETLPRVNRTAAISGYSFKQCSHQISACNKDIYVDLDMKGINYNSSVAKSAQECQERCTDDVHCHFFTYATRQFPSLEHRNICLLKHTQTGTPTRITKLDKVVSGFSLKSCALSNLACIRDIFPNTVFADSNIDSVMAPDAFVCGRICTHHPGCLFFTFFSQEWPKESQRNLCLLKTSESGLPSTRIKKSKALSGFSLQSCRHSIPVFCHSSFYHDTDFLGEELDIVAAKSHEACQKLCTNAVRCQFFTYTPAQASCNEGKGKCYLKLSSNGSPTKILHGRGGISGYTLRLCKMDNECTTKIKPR
- Sequence (P03951 388-625 limits assumed): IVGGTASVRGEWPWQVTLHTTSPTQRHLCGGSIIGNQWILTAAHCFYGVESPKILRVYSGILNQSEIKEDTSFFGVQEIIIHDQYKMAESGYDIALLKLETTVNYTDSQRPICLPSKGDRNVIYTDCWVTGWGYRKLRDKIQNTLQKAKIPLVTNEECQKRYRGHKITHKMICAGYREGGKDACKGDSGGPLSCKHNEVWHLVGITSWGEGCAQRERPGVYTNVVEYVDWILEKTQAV
- Experiment: Inhibition of human Factor XIa using Boc-Glu(OBzl)-Ala-Arg-AMC assessed as AMC release preincubated for 15 mins followed by substrate addition and measured after 10 mins by microplate fluorescence reader analysis
Measured Parameter: pIC50
When answering, recall that pIC50 equals minus log10 of the concentration in mol/L, and write that number alone.

get_value(item= COc1cn(Cc2cn(-c3ccccc3)nn2)c(=O)cc1-c1cc(Cl)ccc1-n1cc(Cl)nn1 , readout=pIC50) returns 7.11

get_value(item= COc1cn(C(Cc2ccccc2)c2cn(-c3ccc(C(=O)O)cc3)nn2)c(=O)cc1-c1cc(Cl)ccc1-n1cc(Cl)nn1 (centres undefined) , readout=pIC50) returns 8.65

get_value(item= COc1cn(C(Cc2ccccc2)c2cn(-c3cn[nH]c3)nn2)c(=O)cc1-c1cc(Cl)ccc1-n1cc(Cl)nn1 (centres undefined) , readout=pIC50) returns 7.67

get_value(item= COc1cn(Cc2cn(-c3cc(Br)cnc3C#N)nn2)c(=O)cc1-c1cc(Cl)ccc1-n1cc(Cl)nn1 , readout=pIC50) returns 5.70
